Reference source: the supplement of paper PMC9948646

Tested on: gramicidin D channels in DC22:1PC lipid vesicles (bilayer-modifying potency)
Assay details: initial Tl+ fluorescence quench rate relative to no-drug control (NormRate, gramicidin monomer-dimer shift) (ratio (fold of control)); higher = stronger bilayer-modifying effect (equilibrium shifted toward conducting dimers), active = 1.5 or more
Stated conditions: 10 µM; lipid concentration 50 µM; temperature: 25 °C
Outcomes: True for active, False for inactive

Chemical string	Assigned class
Nc1nccc2ccc(Oc3ccncc3)cc12	False
CCCCN(CCCC)c1c(C#N)cc(S(=O)(=O)Nc2ccccc2)cc1C#N	False
O=C(Nc1cccc(-c2ccc(NCCCN3CCCC3)nc2)c1)c1ccccc1	False
CCCCc1ccc(NC(=O)Nc2ccc(O[C@H]3CCCC[C@@H]3N(C)c3ccccc3)c(F)c2)cc1	False
O=C1N(Cc2cc3ccccc3s2)C[C@H]2CN(Cc3ccccc3)CCN12	True
Cc1ccccc1C(=O)N1N=C(Nc2ccccc2)SC1(C)C	True
Cc1ccc(S(=O)(=O)Nc2ccc(CN3CCN(C(=O)c4cccc(C#N)c4)CC3)cc2)cc1	True
CCc1ccc([C@@H]2C[C@H](C(F)(F)F)n3ncc(C(=O)NCc4ccc(OC)cc4)c3N2)cc1	True
COc1ccc(-c2onc(C(F)(F)F)c2-c2ccc(Cl)cc2)c(O)c1	False
FC(F)(F)c1cc(NCCc2ccccc2)nc(-c2ccccn2)n1	False
C[C@H]1CS(=O)(=O)CCN1/N=C/c1ccc([N+](=O)[O-])o1	False
O=C(Nc1nc(-c2ccccn2)cs1)[C@H]1C[C@@H]1c1ccccc1F	False
COc1nc2ccc(Br)cc2cc1[C@@H](c1ccccc1)[C@@](O)(CCN(C)C)c1cccc2ccccc12	True
NCCN(C(=O)c1ccc(Cl)cc1Cl)c1ccc(OCc2ccc(Cl)cc2)cc1	True
CC(=O)Nc1ccc(NC(=O)c2cc(-c3cc(Cl)ccc3O)[nH]n2)cc1	False
Cc1nc(-c2ccccn2)nc(NCCc2ccc(S(C)(=O)=O)cc2)c1Cl	False
CS(=O)(=O)c1ccc(C(=O)N(C[C@H]2CCCO2)c2nc3ccccc3s2)cc1[N+](=O)[O-]	True
O=C(Nc1ccc(N2CCNCC2)cc1)c1ccn2ncc(-c3cccc(Cl)c3)c2n1	True
CC(=O)N1CCN(c2ccc(Oc3ccc(Cl)cc3O)cc2)CC1	True
CCCn1c(CNc2ccccc2O)nc2ccccc21	False
O[C@@H](c1cc(C(F)(F)F)nc2c(C(F)(F)F)cccc12)[C@H]1CCCCN1	True
Cc1[nH]c2cc(F)cc(F)c2c(=O)c1-c1ccc(Oc2ccc(OC(F)(F)F)cc2)cc1	False
Cc1ccc2c(c1C)NC(=O)[C@@]21NN=C(c2ccccc2)S1	False
CCOc1ccc(OCC(=O)Nc2cc(C)cc(C)c2)cc1	False
O=C(COc1cccc(F)c1)Nc1nc(-c2ccccn2)cs1	False
O=C(NCc1ccoc1)N1CCN(Cc2ccc3c(c2)OCO3)CC1	False
CC(C)(CN)c1nc(-c2ccc(Cl)c(O)c2)c(-c2ccnc(N)n2)[nH]1	False
COc1ccc2nccc(NC(=O)C3CCN(CCc4ccc(Cl)cc4)CC3)c2n1	False
COc1ccc2nc(C)cc(OCC(=O)NCc3ccccc3)c2c1	False
Clc1ccc(CCNc2cc(-c3ccccc3)nc3ncnn23)cc1	False
O=C(N[C@H]1CCN(c2ccnc3ccccc23)C1)c1cccc(C(F)(F)F)c1	False
Cc1cc(O)nc(-n2nc(C)cc2C)n1	False
